B1: SOAT1 (parent)
chain: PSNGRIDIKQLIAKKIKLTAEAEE

Variants of: B1
Assay: protein stability index of a GFP-peptide fusion (GPS, HEK-293T) (PSI 1-6); higher = more stable;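 further: lentivirally expressed fusions sorted by FACS into six bins by GFP to DsRed ratio, PSI derived from sequencing read proportions per bin multiplied by bin number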
Conditions: c terminus: a fixed tail appended
Parameter threshold = 3. Response is satisfied when protein stability index meets or exceeds it, else not satisfied.

Check out these entries, answers already filled in.
[[record]]
residue_sequence = "PSNGRIDIKQLIAKKIKLIAEAEE [T19I]"
classification = "not satisfied"

[[record]]
residue_sequence = "PSNGRIDHKQLIAKKIKLTAEAEE [I8H]"
classification = "satisfied"

[[record]]
residue_sequence = "PSNGRIDIKQLIAKKIILTAEAEE [K17I]"
classification = "not satisfied"

[[record]]
residue_sequence = "PSNGRIDIKQLIAGKIKLTAEAEE [K14G]"
classification = "satisfied"


Task item: Assess whether reported protein stability index for PSNSRIDIKQLIAKKIKLTAEAEE [G4S] sits at 3 or higher.
Reply: satisfied

Task item: Same read-out for PSNGRIDIKQLIAKKIKLTAEAEY [E24Y] ?
Reply: not satisfied

Task item: Same read-out for PSNGRIDIKQLIAKKIKLTAEAEP [E24P] ?
Reply: satisfied

Task item: Same read-out for PSNGRIDIKQLRAKKIKLTAEAEE [I12R] ?
Reply: satisfied

Task item: Same read-out for PSNGRIDIKQFIAKKIKLTAEAEE [L11F] ?
Reply: satisfied

Values compiled from the supplement of paper PMC10567573.
